# EXPERIMENTAL PROTOCOL: chemical genetic growth profiling, strain panel (AID 1159580);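 note: tested at 20 µM; growth read once vehicle control cultures reached saturation at 30 °C; 1 = growth at the plate median or of vehicle wells; lower values mean less growth of the strain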
# RUN CONDITIONS: S. cerevisiae deletion strains, growth OD, locus YEL061C, strain CIN8, stronger effect = lower value
Out of some 5,500 compounds screened, about 2,000 (36%) were called active. Inconclusive results (about 18%) are left out. The list shows a part of the results.
ASSAY ENDPOINT: normalized growth
The response must contain the number and no unit.

{"columns": ["COMPOUND", "normalized growth"],
 "data": [
  ["S=c1[nH]c2ccccc2[nH]1", 0.982],
  ["COc1ccccc1N1CCNCC1", 1.01]
]}

GET /value?item= COc1cc(O)cc(/C=C/c2ccccc2)c1 &field=normalized growth returns 0.856

The recorded normalized growth for entry S=c1[nH]c2ccccc2s1 equals 1.01

The measured normalized growth associated with CO[C@@H]1C[C@@H](C[C@H]2CC[C@H](C)[C@H]([C@@H](C)C(=O)O)O2)O[C@]2(O[C@](C)([C@H]3CC[C@@](C)(C4O[C@@H](C5O[C@@](O)(CO)[C@H](C)C[C@@H]5C)C[C@@H]4C)O3)C[C@H]2C)[C@@H]1C (stereo not given in full) reads 1.02

The recorded normalized growth for entry O=C(O)CC(CC(=O)O)c1ccc(C(F)(F)F)cc1 equals 1.01

The reported normalized growth of the compound COC(=O)[C@H]1[C@H]2C[C@@H]3c4[nH]c5cc(OC)ccc5c4CCN3C[C@H]2C[C@@H](OC(=O)c2cc(OC)c(OC)c(OC)c2)[C@@H]1OC was 0.999

The reported value for CC1=C(/C=C/C(C)=C/C=C/C(C)=C/CO)C(C)(C)CCC1 in terms of normalized growth is 0.992

Recorded result, COc1ccccc1N1CCN(Cc2ccc(F)cc2)CC1 , normalized growth: 1.01

Sample O=C1NC(c2c(F)cccc2Cl)Nc2ccccc21 (stereo not given) ; normalized growth observed: 1

====

# EXPERIMENTAL PROTOCOL: chemical genetic growth profiling, strain panel (AID 1159580)
# RUN CONDITIONS: S. cerevisiae deletion strains, growth OD, locus YMR277W, strain FCP1, stronger effect = lower value
In all, about 5,500 compounds went through this assay and about 2,000 (36%) were called active. Inconclusive results (about 18%) are left out. This is one part of the list.
The reader will find reported normalized growth values listed item by item below.
The answer should be written as a number, with no unit following it.

Known results for compounds:
{"columns": ["COMPOUND", "normalized growth"],
 "data": [
  ["COc1cc(C(=O)Oc2c(Cl)cc(Cl)cc2C=Nc2cccc(C(F)(F)F)c2)cc(OC)c1OC", 0.97],
  ["O=C(NCc1ccco1)c1csc(C2COc3ccccc3O2)n1 (stereo unspecified)", 0.915],
  ["COc1ccccc1NC(=O)Nc1nn(C)c2cccc(OC)c12", 0.918]
]}

// CCOC(=O)c1c(N=Cc2cc(Br)c(Br)cc2O)sc2c1CCCC2 : normalized growth value = 0.968

====

# EXPERIMENTAL PROTOCOL: chemical genetic growth profiling, strain panel (AID 1159580)
# RUN CONDITIONS: S. cerevisiae deletion strains, growth OD, locus YLR113W, strain HOG1
In all, about 5,500 compounds went through this assay and about 2,000 (36%) were called active. Roughly 18% stayed inconclusive and do not appear here. Rule as the data show it: active = normalized growth mostly below about 0.91 (no sharp cut-off); inconclusive = no clear call, values can overlap the other calls; inactive = mostly above about 0.92. This is one part of the list.
Bench note: report the call from yes (1) (active), no (0) (inactive)

Some solved cases for reference:
{"columns": ["COMPOUND", "CAT"],
 "data": [
  ["Cc1cccc(CN2CCN(C(c3ccccc3)c3ccc(Cl)cc3)CC2)c1 (stereo unspecified)", "no (0)"],
  ["CN(C)/C=C/C(=O)c1ccc(C#Cc2ccccc2)cc1", "no (0)"],
  ["CCOP(=S)(OCC)Oc1ccc2c(C)c(Cl)c(=O)oc2c1", "no (0)"],
  ["CN1CCN(C(c2ccccc2)c2ccc(Cl)cc2)CC1 (stereo unspecified)", "no (0)"],
  ["C[C@]12CCC3c4ccc(OS(=O)(=O)O)cc4CCC3C1CCC2=O (stereo partly specified)", "no (0)"]
]}

Please turn your attention to the following entry.
Q) # fetch the recorded call for COc1cc(N=Cc2cc(Cl)cc(Cl)c2OS(=O)(=O)c2ccc(C)cc2)c(OC)cc1Cl here
A) yes (1)

====

# EXPERIMENTAL PROTOCOL: chemical genetic growth profiling, strain panel (AID 1159580)
# RUN CONDITIONS: S. cerevisiae deletion strains, growth OD, locus YDL035C, strain GPR1, stronger effect = lower value
Hit rate of the full screen: of about 5,500 compounds, about 2,000 (36%) were called active. Not shown: some 18% with an inconclusive outcome. The list shows a part of the results.
# normalized growth annotations
Answer with the value's number alone.

Worked examples, 3 compounds total:
{"columns": ["COMPOUND", "normalized growth"],
 "data": [
  ["CCOC(=O)CCCCCCCCCCCCC1C=CCC1 (centres undefined)", 0.0527],
  ["O=C(O)CCCCCCCCCCCCC1C=CCC1 (centres undefined)", 0.87],
  ["Oc1ccc(/C=C/c2cc(O)cc(O)c2)cc1", 0.939]
]}

Then this compound:
normalized growth measured on O=c1cccc2n1C[C@H]1CNCC2C1 = 0.988

====

# EXPERIMENTAL PROTOCOL: chemical genetic growth profiling, strain panel (AID 1159580);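 note: tested at 20 µM; growth read once vehicle control cultures reached saturation at 30 °C; 1 = growth at the plate median or of vehicle wells; lower values mean less growth of the strain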
# RUN CONDITIONS: S. cerevisiae deletion strains, growth OD, locus YDL040C, strain nat1, stronger effect = lower value
In all, about 5,500 compounds went through this assay and about 2,000 (36%) were called active. Not shown: some 18% with an inconclusive outcome. Some of the results follow.
Recorded measurements of normalized growth, one per entry

Here's what some known entries look like.
{"columns": ["MOLECULE", "normalized growth"],
 "data": [
  ["O=C(O)c1cc(=O)c(O)c2c(O)c(O)c(O)cc2c1", "0.906 (active)"],
  ["CC12CCC3C(CC=C4CC(O)CCC43C)C1CCC2=O (stereo unspecified)", "1.02 (inactive)"],
  ["COc1cc(/C=C/C(=O)O)ccc1O", "1 (inactive)"]
]}

Memo: COc1ccc(/C=C/C(=O)c2cc(O)ccc2O)cc1 , reported normalized growth: 0.646 (active)

Kindly note the recorded normalized growth for CC(=O)O[C@H]1CC[C@@]2(C)C(=CCC3C2CC[C@]2(C)C(=O)CCC32)C1 (stereo partly specified) , which is 1.03 (inactive)

Per the records, this molecule ( O=C(NC(Cc1cc(=O)[nH]c2ccccc12)C(=O)O)c1ccc(Cl)cc1 (stereo unspecified) ) has normalized growth equal to 1 (inactive)

====

# EXPERIMENTAL PROTOCOL: chemical genetic growth profiling, strain panel (AID 1159580);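 note: tested at 20 µM; growth read once vehicle control cultures reached saturation at 30 °C; 1 = growth at the plate median or of vehicle wells; lower values mean less growth of the strain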
# RUN CONDITIONS: S. cerevisiae deletion strains, growth OD, locus YMR263W, strain SAP30
The whole screen tested about 5,500 compounds, of which about 2,000 (36%) were called active. Roughly 18% stayed inconclusive and do not appear here. Cut-off read from the data, not from the text of the source: active = normalized growth mostly below about 0.91 (no sharp cut-off); inconclusive = no clear call, values can overlap the other calls; inactive = mostly above about 0.92. Some of the results follow.
Write down one outcome, taken from active, inactive

Worked set:
{"columns": ["MOLECULE", "CAT"],
 "data": [
  ["S=c1[nH]c2ccccc2[nH]1", "inactive"],
  ["CCOP(=S)(OCC)SCCSCC", "inactive"]
]}

Q) Hello, I am checking results. What call was entered for C/C(=N/NC1=NCCN1)c1ccc(F)cc1 ?
A) inactive

Q) Any idea what this test logged for CCOP(=S)(OCC)SCSP(=S)(OCC)OCC ?
A) inactive

Q) Can you look up the reported call for CC1=C(C(=O)O)N2C(=O)[C@@H](NC(=O)C(N)C3=CCC=CC3)[C@H]2SC1 (some centres not stated) for me?
A) inactive

Q) Tell me the assay call for CC(N)=NCCCC[C@@H](N)C(=O)O please.
A) inactive

Q) Outcome? CCOC(=O)CCc1cc(N=Cc2cc(Cl)cc(Cl)c2O)c(O)c(N=Cc2cc(Cl)cc(Cl)c2O)c1
A) active

Q) Hello, I am checking results. What call was entered for CN(C)c1ccc(/C=N\NC(=O)CCc2ccc(O)cc2)c(Cl)c1 ?
A) inactive

Q) Recorded test call requested for c1ccc(C2CC2)c(OCC2=NCCN2)c1
A) inactive

Q) Which outcome did this test record for the molecule CCCCC(CC)CN=C(N)NC(N)=NCCCCCCN=C(N)NC(N)=NCC(CC)CCCC (configuration not stated) ?
A) active

Q) I'd appreciate the recorded outcome for CCOP(=S)(OCC)SCSCC from this test.
A) inactive

Q) Any idea what this test logged for COc1cc(/C=C/C(=O)O)ccc1O ?
A) inactive

====

# EXPERIMENTAL PROTOCOL: chemical genetic growth profiling, strain panel (AID 1159580);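 note: tested at 20 µM; growth read once vehicle control cultures reached saturation at 30 °C; 1 = growth at the plate median or of vehicle wells; lower values mean less growth of the strain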
# RUN CONDITIONS: S. cerevisiae deletion strains, growth OD, locus YJL092W, strain hpr5, stronger effect = lower value
About 2,000 (36%) of roughly 5,500 compounds were called active. Roughly 18% stayed inconclusive and do not appear here. The list shows a part of the results.
ASSAY ENDPOINT: normalized growth
The answer should be written as a number, with no unit following it.

Please review the following examples before continuing.
{"columns": ["MOLECULE", "normalized growth"],
 "data": [
  ["CC[C@@H](C(=O)[C@@H](C)[C@@H](O)[C@H](C)[C@@H]1O[C@@H]([C@@H](CC)C(=O)O)CC[C@@H]1C)[C@H]1OC2(C=C[C@@H](O)[C@]3(CC[C@@](C)([C@H]4CC[C@](O)(CC)[C@H](C)O4)O3)O2)[C@H](C)C[C@@H]1C (some centres not stated)", 0.903],
  ["CC(=O)O[C@H]1CC[C@@]2(C)C(=CCC3C2CC[C@]2(C)C(=O)CCC32)C1 (some centres not stated)", 1],
  ["CO[C@@H]1[C@@H](O[C@@H]2O[C@H](C)[C@@H](O[C@H]3C[C@@](C)(O)[C@H](O)[C@H](C)O3)[C@H](N(C)C)[C@H]2O)[C@@H](CC=O)C[C@@H](C)[C@@H](O[C@H]2CC[C@H](N(C)C)[C@@H](C)O2)/C=C/C=C/C[C@H](C)OC(=O)C[C@H]1O", 1.01],
  ["O=C1O[C@@H](CO)[C@H](O)[C@@H](O)[C@@H]1O", 1.01]
]}

Kindly note the recorded normalized growth for CC1(C)C2CC(=O)O[C@@]3(C)C4=CC(=O)O[C@@H](c5ccoc5)[C@]4(C)CCC3[C@@]2(C)C=C[C@H]1O (some centres not stated) , which is 0.971

The molecule identified as NC(=O)c1cc[n+](CC2=C(C(=O)O)N3C(=O)C(NC(=O)C(c4ccccc4)S(=O)(=O)[O-])C3SC2)cc1 (configuration not stated) registered its normalized growth at 0.995

normalized growth in this record for C#C[C@]1(O)CCC2C3CCc4cc(O)ccc4C3CC[C@@]21C (some centres not stated) : 1.02

Data provenance: PubChem BioAssay AID1159580
